Reported values: Tox50 Cell lines for L1210, HepG2, NEURO 2A, MDCK and H9C2(2-1), one per item.
measured quantity: Tox50 Cell lines

| substance smiles | value observed |
| --- | --- |
| Cc1ccc2nc(C)c(C(=O)NCc3ccc(Cl)nc3)n2c1 | all>50 µM |
| Cc1ccc2nc(C)c(C(=O)NCc3cccs3)n2c1 | all>25 µM |
| Cc1ccc2nc(C(F)(F)F)c(C(=O)NCc3cccc(Cl)c3)n2c1 | all>50 µM |
| Cc1ccc2nc(C)c(C(=O)NCc3ccc(C(F)(F)F)cc3)n2c1 | all>25 µM |

* * *

Assay: in vitro
Settings: mouse, microsomes, pH 7.4
Below, each entry is listed with its recorded half-life.

| compound | half-life [min] |
| --- | --- |
| Cc1ccc2nc(C)c(C(=O)NCc3ccc(C(F)(F)F)cc3)n2c1 [IP 3] | 11.6 |
| Cc1ccc2nc(C)c(C(=O)NCc3ccc(Cl)nc3)n2c1 [IP 4] | 11.4 |

* * *

Assay: Whole blood pharmacokinetics after oral administration in mice
Type: in vivo, C57BL/6 female mice
Conditions: female, C57BL/6; mouse, oral 50 mg/kg suspension in 1% aqueous methylcellulose, whole blood; read-out: AUC (Area Under the Curve) (0–8 hours)

| substance smiles | unit label | AUC |
| --- | --- | --- |
| Cc1ccc2nc(C)c(C(=O)NCc3ccc(C(F)(F)F)cc3)n2c1 | ng·h/mL | 4360 |

* * *

Test: in vitro
Settings: human, microsomes, pH 7.4

| substance smiles | half-life at 0.5 mM |
| --- | --- |
| Cc1ccc2nc(C(F)(F)F)c(C(=O)NCc3cccc(Cl)c3)n2c1 | < 3 min |

* * *

Experiment: Whole blood pharmacokinetics after oral administration in mice
Format: in vivo, C57BL/6 female mice
Settings: female, C57BL/6; mouse, oral 50 mg/kg suspension in 1% aqueous methylcellulose, whole blood; read-out: Cmax (maximum concentration observed in whole blood)

| compound | unit label | Cmax |
| --- | --- | --- |
| Cc1ccc2nc(C)c(C(=O)NCc3ccc(C(F)(F)F)cc3)n2c1 [IP 3] | ng/mL | 3400 |

* * *

Assay: in vitro
Details: human, microsomes, pH 7.4
Below, each entry is listed with its recorded half-life.

| substance smiles | unit label | comparison symbol | half-life |
| --- | --- | --- | --- |
| Cc1ccc2nc(C)c(C(=O)NCc3ccc(Cl)nc3)n2c1 | min | > | 30 |
| Cc1ccc2nc(C)c(C(=O)NCc3ccc(C(F)(F)F)cc3)n2c1 | min | = | 15.8 |

* * *

Below, each entry is listed with its recorded half-life at 0.5 mM.
Assay: in vitro
Conditions: mouse, microsomes, pH 7.4

| substance smiles | half-life at 0.5 mM |
| --- | --- |
| Cc1ccc2nc(C(F)(F)F)c(C(=O)NCc3cccc(Cl)c3)n2c1 | < 3 min |
| Cc1ccc2nc(C)c(C(=O)NCc3cccs3)n2c1 | < 3 min |

* * *

Assay: Whole blood pharmacokinetics after oral administration in mice
Assay type: in vivo, C57BL/6 female mice
Details: female, C57BL/6, whole blood; mouse, oral 50 mg/kg suspension in 1% aqueous methylcellulose; read-out: F (percentage bioavailability)
Description: For pharmacokinetic studies C57BL/6 female mice of 18–20 g weight were used. Experimental compounds were administered through oral gavage at 50 mg/kg dose at a concentration of 20 ml/kg. All mice received treatment in the fed state. Peripheral total blood was the compartment chosen for the establishment of compound concentrations. Drugs were administered as 1% methyl cellulose suspensions and the blood sampling scheme was: 15, 30 and 45 minutes, 1, 1.5, 2, 3, 4, 8 and 24 hours. […]
measured quantity: bioavailability (%)

| compound | value observed |
| --- | --- |
| Cc1ccc2nc(C)c(C(=O)NCc3ccc(C(F)(F)F)cc3)n2c1 [IP 3] | 61 |

Entry source: paper PMC3534098
